B1: library; numbered along this chain (parent)
chain: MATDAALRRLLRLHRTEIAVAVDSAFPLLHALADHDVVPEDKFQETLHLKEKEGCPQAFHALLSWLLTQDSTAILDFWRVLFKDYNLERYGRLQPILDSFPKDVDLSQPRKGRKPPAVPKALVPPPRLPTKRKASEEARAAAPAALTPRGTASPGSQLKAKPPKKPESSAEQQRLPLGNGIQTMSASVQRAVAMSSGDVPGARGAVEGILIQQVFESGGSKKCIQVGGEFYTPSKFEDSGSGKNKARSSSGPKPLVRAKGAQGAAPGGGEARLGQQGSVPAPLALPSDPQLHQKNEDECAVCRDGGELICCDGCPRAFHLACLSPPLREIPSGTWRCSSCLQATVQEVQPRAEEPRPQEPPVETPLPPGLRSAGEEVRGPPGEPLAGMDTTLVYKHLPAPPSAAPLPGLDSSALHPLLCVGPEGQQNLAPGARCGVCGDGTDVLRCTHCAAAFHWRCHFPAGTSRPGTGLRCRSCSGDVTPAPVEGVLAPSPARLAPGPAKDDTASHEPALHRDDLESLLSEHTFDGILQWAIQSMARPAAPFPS

Variants of: B1
assay-protocol: AIRE transcriptional activation functional score (insulin promoter-GFP; nonsense median 0, synonymous median 1) (normalised score); higher = higher AIRE activity (more reporter activation)
condition: with insulin promoter-GFP reporter in HEK293
Hi, to clarify the labels: MET covers AIRE transcriptional activation functional score from 1 upward, NOT MET covers anything below 1.

Asked: Decide: is the reported value of AIRE transcriptional activation functional score for Q189M equal to or greater than 1?
Given back: NOT MET

Further cases:
Asked: Decide: is the reported value of AIRE transcriptional activation functional score for V206A equal to or greater than 1?
Given back: NOT MET

Asked: Another variant to look at: G251I
Given back: MET

Asked: Another variant to look at: I330N
Given back: NOT MET

Asked: Another variant to look at: A510V
Given back: MET

Asked: Another variant to look at: S71E
Given back: MET

Asked: Another variant to look at: D442F
Given back: NOT MET

Asked: Another variant to look at: P381R
Given back: MET

Asked: Another variant to look at: G477W
Given back: NOT MET

Asked: Another variant to look at: G374A
Given back: MET

Asked: Another variant to look at: P289G
Given back: MET

Asked: Another variant to look at: K50F
Given back: NOT MET

Asked: Another variant to look at: G178T
Given back: MET

Asked: Another variant to look at: I18V
Given back: NOT MET

Asked: Another variant to look at: K165H
Given back: MET

Asked: Another variant to look at: P368S
Given back: MET
